Target: ZDHHC7 (Mus musculus)
Sequence (Q91WU6 1-308): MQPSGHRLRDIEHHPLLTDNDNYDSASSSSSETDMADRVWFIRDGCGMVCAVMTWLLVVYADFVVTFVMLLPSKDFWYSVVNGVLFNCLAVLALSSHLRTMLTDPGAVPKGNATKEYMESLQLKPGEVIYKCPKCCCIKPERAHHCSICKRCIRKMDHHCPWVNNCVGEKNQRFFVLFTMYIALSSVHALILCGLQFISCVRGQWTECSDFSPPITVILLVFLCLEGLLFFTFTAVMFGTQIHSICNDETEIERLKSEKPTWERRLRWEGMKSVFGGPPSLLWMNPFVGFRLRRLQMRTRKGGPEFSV
Assay: ZDHHC7-myrGia PAT assay with [3H]palmitoyl-CoA
Assay type: biochemical
Set-up: myc (vector pblueBac4.5-myc3His10) (C); His (vector pblueBac4.5-myc3His10) (C); made in house; host or cells: Sf9 insect cells (baculovirus)
Conditions: [3H]palmitoyl-CoA and myr-Gia substrate; 10 min pre-incubation at 30° C.
Method: To further evaluate the potency of the inhibitors, the four compounds were tested using ZDHHC7-catalyzed palmitoylation of myristoylated (myr) Gi protein a subunit (Gia) using an established in vitro assay with [^3H]palmitoyl-CoA. […] The [^3H]-palmitoylated myrGia band was excised from the gel and the level of [^3H]palmitoylation was measured by scintillation counting. […] ZDHHC7-myrGia PAT Assay. […] Radioactivity was measured by scintillation counting. […]
Property Name: IC50 (µM)

INSERT INTO assay_data (compound, quantitative_result) VALUES
  ('CCCCCCCCCCCCCCC(Br)C(=O)O (stereo not shown) [2-BP, 2-bromopalmitate, reference compound]', 16);

I: CCCCCCCCCCCCCCC(Br)C(=O)SCCNC(C)=O (stereo not shown)
II: CCCCCCCCCCCCCCC(Br)C(=O)OC [MY-D-2, methyl 2-bromohexadecanoate]
III: CCCCCCCCCCCCCCC(Br)C(=O)Nc1ccccc1 [MY-D-3, 2-bromo-N-phenylhexadecanamide]
Could you please sort these 3 entries by IC50 from high to low? Field: ranking. Enter the labels in the order requested.
III, II, I
(III: 78 µM, II: 29 µM, I: 1.6 µM)
